Molecular target: T1, biotinylated CXCR4-virus like particle (Integral Molecular, Lot INT-1793B) (human, UniProt P61073 1-352, VLP biotinylated, sites not stated)
T1 construct: also called hCXCR4 VLP; CXCR4 VLP
T1 sequence (P61073 whole entry): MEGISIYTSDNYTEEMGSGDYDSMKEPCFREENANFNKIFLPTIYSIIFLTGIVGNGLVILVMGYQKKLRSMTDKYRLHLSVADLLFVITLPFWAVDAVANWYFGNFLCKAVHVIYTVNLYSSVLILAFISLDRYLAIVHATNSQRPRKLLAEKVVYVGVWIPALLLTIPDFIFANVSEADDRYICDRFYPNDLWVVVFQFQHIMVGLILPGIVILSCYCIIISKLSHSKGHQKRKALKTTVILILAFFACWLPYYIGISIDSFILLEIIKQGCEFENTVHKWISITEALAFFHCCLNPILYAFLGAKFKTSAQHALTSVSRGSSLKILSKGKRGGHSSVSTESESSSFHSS
Assay: SPR (Biacore 8K), biotinylated CXCR4 VLP captured on SA chip, Fab as analyte, 25 C, 1:1 model
This section presents binders with their documented kon values.
Please respond with the number in M⁻¹ s⁻¹ and leave the unit unwritten.

Take a look at these entries with their results.
[
  {
    "Binder": "CL-82658 Fab fragment (Fab, V domains shown, Purified Fab fragment) VH: QVQLVESGGGVVQPGRSLRLSCAASGFSFSSYGMHWVRQAPGKGLEWVAVISYDGSNKYYADSVKGRFTISRDNSKNTLYLQMNSLRGEDTAVYYCSKGSLTPRRGYYYSYGMDVWGQGTTVTVSS VL: DIQMTQSPSSLSASVGDRVTITCRASQGIRNDLSWYQQKPGKAPKRLIYAASSLQSGVPSRFSGSGSGTEFTLTISSLQPEDFATYYCLQHNGYPFTFGPGTKVDIK",
    "Units of measure": "M⁻¹ s⁻¹",
    "kon": 616000
  },
  {
    "Binder": "CL-83083 Fab fragment (Fab, V domains shown, Purified Fab fragment) VH: EVQLVESGGGLVQPGGSLKLSCAASGFTFSGSAMHWVRQASGKGLEWVGRIRSKANKYATAYAASVKGRFTISRDDSKNTAYVQMKSLKTEDTAVYYCTWELSNYDILTGFYYGMDVWGQGTTVTVSS VL: QAGLTQPPSVSKGLRQTATLTCTGNSNNVGNLGAAWLQQHQGHPPKLLSYRNNNRPSGISERFFASRSGNTASLTITGLQPEDEADYYCSAWDSSLSAWVFGGGTKLTVL",
    "Units of measure": "M⁻¹ s⁻¹",
    "kon": 546000
  }
]

Kindly review the next binder as well.
Reported kon of CL-82458 Fab fragment (Fab, V domains shown, Purified Fab fragment) VH: EVQLVESGGDLVQPGGSLRLSCAASGFTFYSYAMNWVRQAPGKGLKWVSGISGSGDITYYADSVKGRFTISRDNSKNTLYLQMHSLRPEDTAIYYCAKGQLERRYYKYYGMDVWGQGTTVTVSS VL: DIQMTQSPSSLSASVGDRVTITCRANQGIRNDLGWYQQKPGKAPKRLIYGASSLKSGVPSRFSGSGSGTEFTLTISSLQPEDFATYYCLQQNSYPLTFGGGTKVEIK : 887000
